B1: library; numbered along this chain (parent)
chain: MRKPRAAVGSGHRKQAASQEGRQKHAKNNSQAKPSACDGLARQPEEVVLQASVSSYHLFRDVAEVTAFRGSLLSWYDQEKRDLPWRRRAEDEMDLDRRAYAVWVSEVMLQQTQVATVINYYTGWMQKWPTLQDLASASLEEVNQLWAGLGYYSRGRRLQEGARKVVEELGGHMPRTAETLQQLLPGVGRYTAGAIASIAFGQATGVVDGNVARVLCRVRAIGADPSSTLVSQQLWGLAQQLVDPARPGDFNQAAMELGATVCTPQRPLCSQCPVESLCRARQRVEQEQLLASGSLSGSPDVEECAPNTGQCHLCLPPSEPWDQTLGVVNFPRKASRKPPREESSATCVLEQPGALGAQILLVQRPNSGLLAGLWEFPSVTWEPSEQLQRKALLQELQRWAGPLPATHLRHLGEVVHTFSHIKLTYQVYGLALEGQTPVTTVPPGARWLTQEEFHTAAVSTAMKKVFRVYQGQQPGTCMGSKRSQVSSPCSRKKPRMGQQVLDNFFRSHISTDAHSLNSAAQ

variants of: B1; assay: 8OG:A repair function score (normalized; synonymous = 0, nonsense = -1) (normalized log-likelihood score); higher = more repair activity (WT-like); settings: with 8OG:A DNA repair reporter (GFP) in HEK-293 MUTYH KO cells;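 further: cells sorted at 72 h after reporter transfection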
Think of -0.1 as a floor: if 8OG:A repair function score stands on it or above, it is MET; beneath it, NOT MET.

Please review the entries below; each comes with its answer.
L373D NOT MET
M173F MET
Q450N MET
T436A MET
P225T MET

Ask: Is it the case that `Q358S` has 8OG:A repair function score reaching or exceeding -0.1?
Result: NOT MET

Ask: Is it the case that `W146R` has 8OG:A repair function score reaching or exceeding -0.1?
Result: NOT MET

Ask: Is it the case that `V230D` has 8OG:A repair function score reaching or exceeding -0.1?
Result: NOT MET

Ask: Is it the case that `D94C` has 8OG:A repair function score reaching or exceeding -0.1?
Result: NOT MET

Ask: Is it the case that `Q288C` has 8OG:A repair function score reaching or exceeding -0.1?
Result: MET

// data source = the supplement of paper PMC11908140
